Test system: SF-295 CNS
Assay Text: NCI-60 one-dose screen, 48 h
Run Parameters: 10 µM unless noted
The panel holds about 83,000 compounds, 20% with a hit somewhere; the sample as a whole holds those more often. The source made the active and inactive calls. The calls were made as follows: active = growth percent below 10; inactive = the rest.
Outcome (select one): true = active, false = inactive

C=C[C@@H]1C[C@H](O)Cc2c(C)cc(C)cc2N1	false
CC(C)CSc1nc(NN)c(C#N)c(-c2ccccc2)n1	false
CN1CCN(Cc2ccc(NC(=O)c3cncc(C#Cc4cnc(N)c5ccncc45)c3)cc2C(F)(F)F)CC1	false

Which result was noted for this compound in the test: `N/C(=N\S(=O)(=O)c1ccccc1)Nc1nc2ccccc2s1`
false

Which result was noted for this compound in the test: `COc1cc(/C=C/C(=O)N2CCN(C(=O)/C=C/c3cc(OC)c(OC)c(OC)c3)CC2)cc(OC)c1OC`
false

Which result was noted for this compound in the test: `CCN(CC)c1ccc(C(=N)c2ccc(N(CC)CC)cc2)cc1`
true

Which result was noted for this compound in the test: `O=S(=O)(c1ccc(OCCO)cc1)c1ccc(OCCO)cc1`
false

Just for reference, PubChem BioAssay (NCI) is where these values come from.
